molecular target: BtDPP III (Bacteroides thetaiotaomicron)
Sequence (Q8A6N1 entry or part of it, change not shown): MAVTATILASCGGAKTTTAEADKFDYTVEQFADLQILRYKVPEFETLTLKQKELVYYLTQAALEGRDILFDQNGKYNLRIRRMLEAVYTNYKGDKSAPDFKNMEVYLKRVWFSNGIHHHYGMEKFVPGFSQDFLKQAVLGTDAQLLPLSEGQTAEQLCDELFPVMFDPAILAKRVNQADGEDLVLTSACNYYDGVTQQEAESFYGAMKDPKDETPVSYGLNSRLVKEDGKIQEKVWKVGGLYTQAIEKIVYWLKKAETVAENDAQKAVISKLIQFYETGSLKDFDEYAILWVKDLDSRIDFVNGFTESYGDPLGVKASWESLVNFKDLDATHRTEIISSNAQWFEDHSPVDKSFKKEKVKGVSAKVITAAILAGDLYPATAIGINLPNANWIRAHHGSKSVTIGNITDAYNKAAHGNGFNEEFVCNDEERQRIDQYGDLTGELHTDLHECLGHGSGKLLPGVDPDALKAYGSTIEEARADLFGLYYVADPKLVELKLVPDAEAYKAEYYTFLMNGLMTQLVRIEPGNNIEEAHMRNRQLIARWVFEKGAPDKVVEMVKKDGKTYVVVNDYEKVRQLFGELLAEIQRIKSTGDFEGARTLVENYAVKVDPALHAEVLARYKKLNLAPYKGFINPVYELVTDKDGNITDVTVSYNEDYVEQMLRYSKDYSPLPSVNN
pKi: −log10 of the molar value. Residues, ends and D or L forms follow the SMILES beside them.

molecule	pKi
CC(C)[C@H](N)C(=O)N[C@H](C(=O)N[C@@H](Cc1ccc(O)cc1)C(=O)N1CCC[C@H]1C(=O)N[C@@H](Cc1c[nH]c2ccccc12)C(=O)O)C(C)C [tynorphin] (H-VVYPW-OH)	6.01

----------
Target: hDPP III (Homo sapiens, UniProt Q9NY33)
Sequence (Q9NY33 1-737): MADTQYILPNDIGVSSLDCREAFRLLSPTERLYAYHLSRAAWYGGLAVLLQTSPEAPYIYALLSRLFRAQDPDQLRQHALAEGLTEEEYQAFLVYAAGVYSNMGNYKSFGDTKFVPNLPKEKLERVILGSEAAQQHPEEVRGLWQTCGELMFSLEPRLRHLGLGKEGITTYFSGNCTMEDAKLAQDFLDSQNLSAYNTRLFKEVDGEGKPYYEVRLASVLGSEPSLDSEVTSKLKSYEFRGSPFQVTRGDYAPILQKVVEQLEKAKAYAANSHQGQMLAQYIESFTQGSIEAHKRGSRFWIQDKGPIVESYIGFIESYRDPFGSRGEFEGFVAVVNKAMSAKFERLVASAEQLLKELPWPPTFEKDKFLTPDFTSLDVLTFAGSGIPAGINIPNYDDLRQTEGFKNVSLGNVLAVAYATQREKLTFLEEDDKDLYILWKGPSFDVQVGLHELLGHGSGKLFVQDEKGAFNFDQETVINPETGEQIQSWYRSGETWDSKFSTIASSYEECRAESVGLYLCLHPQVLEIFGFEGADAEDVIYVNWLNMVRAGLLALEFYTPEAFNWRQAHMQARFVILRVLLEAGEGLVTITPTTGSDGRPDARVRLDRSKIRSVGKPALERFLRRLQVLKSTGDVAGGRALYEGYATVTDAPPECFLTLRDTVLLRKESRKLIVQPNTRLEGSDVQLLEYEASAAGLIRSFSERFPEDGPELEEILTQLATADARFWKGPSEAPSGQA
Residues, ends and D or L forms follow the SMILES beside them.
attribute-measured: Ki (nM)

compound	attribute-measured	quantity-unit	experimental-value
CC(C)[C@H](N)C(=O)N[C@H](C(=O)N[C@@H](Cc1ccc(O)cc1)C(=O)N1CCC[C@H]1C(=O)N[C@@H](Cc1c[nH]c2ccccc12)C(=O)O)C(C)C [tynorphin] (H-VVYPW-OH)	Ki	nM	30

----------
Molecular target: yDPP III (Saccharomyces cerevisiae)
Sequence (Q08225 1-711): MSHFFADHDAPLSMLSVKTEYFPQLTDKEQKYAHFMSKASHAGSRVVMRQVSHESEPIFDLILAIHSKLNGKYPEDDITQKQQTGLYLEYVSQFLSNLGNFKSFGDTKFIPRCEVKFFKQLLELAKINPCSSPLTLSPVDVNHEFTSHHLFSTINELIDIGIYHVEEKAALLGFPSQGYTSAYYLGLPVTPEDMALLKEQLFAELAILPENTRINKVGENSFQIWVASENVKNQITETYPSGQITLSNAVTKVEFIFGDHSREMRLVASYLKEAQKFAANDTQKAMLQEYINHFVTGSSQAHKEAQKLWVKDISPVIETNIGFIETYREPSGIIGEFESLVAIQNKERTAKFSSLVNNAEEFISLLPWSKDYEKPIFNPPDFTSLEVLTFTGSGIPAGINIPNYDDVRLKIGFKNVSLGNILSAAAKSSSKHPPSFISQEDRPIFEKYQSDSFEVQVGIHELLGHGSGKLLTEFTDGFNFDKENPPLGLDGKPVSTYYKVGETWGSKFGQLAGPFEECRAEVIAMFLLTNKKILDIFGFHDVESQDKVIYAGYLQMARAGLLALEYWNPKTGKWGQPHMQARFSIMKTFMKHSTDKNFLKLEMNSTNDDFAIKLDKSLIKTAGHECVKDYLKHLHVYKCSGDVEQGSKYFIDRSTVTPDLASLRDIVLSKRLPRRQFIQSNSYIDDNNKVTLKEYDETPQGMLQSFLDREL
pKi: −log10 of the molar value. Residues, ends and D or L forms follow the SMILES beside them.
attribute-measured: pKi

compound	experimental-value
CC(C)[C@H](N)C(=O)N[C@H](C(=O)N[C@@H](Cc1ccc(O)cc1)C(=O)N1CCC[C@H]1C(=O)N[C@@H](Cc1c[nH]c2ccccc12)C(=O)O)C(C)C [tynorphin] (H-VVYPW-OH)	6.33
